Tested on: NCI-H23
Assay: Growth inhibition of human NCI-H23 cells assessed as cell growth at 10 uM after 48 hrs by sulforhodamine B assay
Format: functional
Details: NCI-H23, 48 h, read-out: Activity
Measure: growth at 10 µM (%)
Your answer is read as %, so omit the unit and give the number.

So, COc1cccc(-n2nc(C(=O)NCc3ccccc3C)nc2-c2cc(OC)c(OC)c(OC)c2)c1 ? Its growth at 10 µM was 84

Memo: CCOc1ccc(-n2nc(C(=O)Nc3cccc(OC)c3)nc2-c2cc(OC)c(OC)c(OC)c2)cc1 , reported growth at 10 µM: 85.9

The compound CCOc1ccc(-n2nc(C(=O)Nc3ccc(F)c(F)c3)nc2-c2cc(OC)c(OC)c(OC)c2)cc1 showed growth at 10 µM equal to 77.3

growth at 10 µM reported for this compound COc1cccc(-n2nc(C(=O)NCc3ccccc3OC)nc2-c2cc(OC)c(OC)c(OC)c2)c1 : 90.7

# growth at 10 µM (compound: CCOc1ccc(-n2nc(C(=O)NCc3cc(F)cc(F)c3)nc2-c2cc(OC)c(OC)c(OC)c2)cc1 ) is 81.8

What the record says about CCOc1ccc(-n2nc(C(=O)Nc3ccc(OC)c(O)c3)nc2-c2cc(OC)c(OC)c(OC)c2)cc1 : growth at 10 µM is 86.1

get_value(item= CCOc1ccc(-n2nc(C(=O)NCc3ccccc3OC)nc2-c2cc(OC)c(OC)c(OC)c2)cc1 , readout=growth at 10 µM) returns 60.8

growth at 10 µM measured on CCOc1ccc(-n2nc(C(=O)Nc3ccc(F)c(F)c3F)nc2-c2cc(OC)c(OC)c(OC)c2)cc1 = 97.5

====

Tested on: NCI/ADR-RES
Assay: Growth inhibition of human NCI-ADR-RES cells assessed as cell growth at 10 uM after 48 hrs by sulforhodamine B assay
Type: functional
Details: read-out: Activity
Record form. Attribute: growth at 10 µM. Fill in for each entry.
Report the value in % with no unit label.

For CCOc1ccc(-n2nc(C(=O)Nc3cc(F)cc(F)c3)nc2-c2cc(OC)c(OC)c(OC)c2)cc1 the compound record lists growth at 10 µM as 81.7

According to the records, this compound CCOc1ccc(-n2nc(C(=O)Nc3ccccc3)nc2-c2cc(OC)c(OC)c(OC)c2)cc1 displays growth at 10 µM of 45.7

growth at 10 µM for CCOc1ccc(-n2nc(C(=O)Nc3ccc(OC)c(O)c3)nc2-c2cc(OC)c(OC)c(OC)c2)cc1 is 86.4

Quick note, growth at 10 µM for CCOc1ccc(-n2nc(C(=O)NCc3cccc(OC)c3)nc2-c2cc(OC)c(OC)c(OC)c2)cc1 landed at 82.5

====

Test system: HCT-116
Assay: Growth inhibition of human HCT116 cells assessed as cell growth at 10 uM after 48 hrs by sulforhodamine B assay
Format: functional
Conditions: HCT-116, 48 h, read-out: Activity
Returns yes if the recorded growth at 10 µM is greater than or equal to 70%, and no otherwise.

Lookup: Would you say CCOc1ccc(-n2nc(C(=O)Nc3cc(F)cc(F)c3)nc2-c2cc(OC)c(OC)c(OC)c2)cc1 shows growth at 10 µM at minimum 70%?
Found: yes

Lookup: Form field: growth at 10 µM at least 70%? Entry: CCOc1ccc(-n2nc(C(=O)NCc3cc(F)cc(F)c3)nc2-c2cc(OC)c(OC)c(OC)c2)cc1
Found: no

Lookup: Quick check: does CCOc1ccc(-n2nc(C(=O)Nc3ccccc3)nc2-c2cc(OC)c(OC)c(OC)c2)cc1 have growth at 10 µM greater than or equal to 70%?
Found: no

Lookup: Dear colleague, could you confirm whether CCOc1ccc(-n2nc(C(=O)Nc3cccc(OC)c3)nc2-c2cc(OC)c(OC)c(OC)c2)cc1 has growth at 10 µM at or above 70%?
Found: no

Lookup: Is reported growth at 10 µM greater than or equal to 70% here: COc1cccc(-n2nc(C(=O)NCc3ccccc3OC)nc2-c2cc(OC)c(OC)c(OC)c2)c1
Found: yes

Lookup: Please indicate if the recorded growth at 10 µM for CCOc1ccc(-n2nc(C(=O)Nc3ccc(F)c(F)c3F)nc2-c2cc(OC)c(OC)c(OC)c2)cc1 meets or exceeds 70%.
Found: yes

Lookup: Would you say COc1cccc(-n2nc(C(=O)NCc3ccccc3C)nc2-c2cc(OC)c(OC)c(OC)c2)c1 shows growth at 10 µM at minimum 70%?
Found: yes

Lookup: Does growth at 10 µM meet or surpass 70% for CCOc1ccc(-n2nc(C(=O)NCc3ccccc3OC)nc2-c2cc(OC)c(OC)c(OC)c2)cc1 ?
Found: no

Lookup: Does the compound CCOc1ccc(-n2nc(C(=O)Nc3ccc(F)c(F)c3)nc2-c2cc(OC)c(OC)c(OC)c2)cc1 have recorded growth at 10 µM that is 70% or more?
Found: no

====

Please respond with reported growth at 10 µM for every item in the list.
System: SK-MEL-5
Experiment: Growth inhibition of human SK-MEL-5 cells assessed as cell growth at 10 uM after 48 hrs by sulforhodamine B assay
Type: functional
Details: SK-MEL-5, 48 h, read-out: Activity
Provide only the numeric value, understood in %.

Form: compound = CCOc1ccc(-n2nc(C(=O)Nc3ccc(F)c(F)c3F)nc2-c2cc(OC)c(OC)c(OC)c2)cc1 ; growth at 10 µM = 87

growth at 10 µM reading for CCOc1ccc(-n2nc(C(=O)NCc3cc(F)cc(F)c3)nc2-c2cc(OC)c(OC)c(OC)c2)cc1 : 50.1

growth at 10 µM for CCOc1ccc(-n2nc(C(=O)Nc3ccccc3OC)nc2-c2cc(OC)c(OC)c(OC)c2)cc1 is 73.8

The compound COc1cccc(-n2nc(C(=O)NCc3ccccc3C)nc2-c2cc(OC)c(OC)c(OC)c2)c1 showed growth at 10 µM equal to 86.8

The measured growth at 10 µM associated with CCOc1ccc(-n2nc(C(=O)NCc3cccc(OC)c3)nc2-c2cc(OC)c(OC)c(OC)c2)cc1 reads 92.2

====

Test system: OVCAR-5
Experiment: Growth inhibition of human OVCAR5 cells assessed as cell growth at 10 uM after 48 hrs by sulforhodamine B assay
Type: functional
Settings: OVCAR-5, 48 h, read-out: Activity
Measure: growth at 10 µM (%)
Use % as the unit, but write only the number.

Value (growth at 10 µM, OVCAR-5) for record CCOc1ccc(-n2nc(C(=O)Nc3ccc(OC)c(O)c3)nc2-c2cc(OC)c(OC)c(OC)c2)cc1 = 102

Tested system OVCAR-5; growth at 10 µM recorded for CCOc1ccc(-n2nc(C(=O)NCc3ccccc3OC)nc2-c2cc(OC)c(OC)c(OC)c2)cc1 was 74.2

Param item: CCOc1ccc(-n2nc(C(=O)Nc3cccc(OC)c3)nc2-c2cc(OC)c(OC)c(OC)c2)cc1 ; param system: OVCAR-5; output growth at 10 µM: 95.5

The molecule COc1cccc(-n2nc(C(=O)Nc3ccccc3)nc2-c2cc(OC)c(OC)c(OC)c2)c1 , when measured on OVCAR-5, yielded growth at 10 µM of 89.5

CCOc1ccc(-n2nc(C(=O)NCc3cccc(OC)c3)nc2-c2cc(OC)c(OC)c(OC)c2)cc1 tested on OVCAR-5 gave growth at 10 µM: 120

Let me check: COc1cccc(-n2nc(C(=O)NCc3ccccc3C)nc2-c2cc(OC)c(OC)c(OC)c2)c1 , system OVCAR-5, measured growth at 10 µM is 111

# growth at 10 µM measured on OVCAR-5 for item CCOc1ccc(-n2nc(C(=O)Nc3ccccc3OC)nc2-c2cc(OC)c(OC)c(OC)c2)cc1 = 82.4

Kindly note: OVCAR-5, CCOc1ccc(-n2nc(C(=O)Nc3cc(OC)c(OC)c(OC)c3)nc2-c2cc(OC)c(OC)c(OC)c2)cc1 , growth at 10 µM value reported: 102

The recorded growth at 10 µM with OVCAR-5 for CCOc1ccc(-n2nc(C(=O)Nc3ccc(F)c(F)c3)nc2-c2cc(OC)c(OC)c(OC)c2)cc1 was 101

Readout growth at 10 µM for CCOc1ccc(-n2nc(C(=O)Nc3ccc(F)c(F)c3F)nc2-c2cc(OC)c(OC)c(OC)c2)cc1 , test system OVCAR-5, was 81.5

Form: item CCOc1ccc(-n2nc(C(=O)NCc3cc(F)cc(F)c3)nc2-c2cc(OC)c(OC)c(OC)c2)cc1 ; test system OVCAR-5; growth at 10 µM: 85

Record CCOc1ccc(-n2nc(C(=O)Nc3ccccc3)nc2-c2cc(OC)c(OC)c(OC)c2)cc1 / OVCAR-5, growth at 10 µM recorded as 84.1

GET /values?item= CCOc1ccc(-n2nc(C(=O)Nc3cc(F)cc(F)c3)nc2-c2cc(OC)c(OC)c(OC)c2)cc1 &system= OVCAR-5 returns growth at 10 µM: 98.8

Entry COc1cccc(-n2nc(C(=O)NCc3ccccc3OC)nc2-c2cc(OC)c(OC)c(OC)c2)c1 , OVCAR-5 data, growth at 10 µM value: 113

The measured values listed here are drawn from ChEMBL document CHEMBL4138126.
